Target: Ephrin type-A receptor 4 (Homo sapiens)
Settings: at 1 µM
Description: GSK_PKIS: EPHA4 mean inhibition at 1 uM [Nanosyn]
Think of 10% as a floor: if inhibition stands on it or above, it is class 1; beneath it, class 0.

Consider the following illustrative entries.
Fc1ccc(-c2nn3ccccc3c2-c2ccncc2)cc1: class 1
CS(=O)(=O)CCNCc1coc(-c2ccc3ncnc(Nc4ccc(OCc5ccccc5)cc4)c3c2)c1: class 0
CNC(=O)c1cc(-c2ccc(F)cc2)cc(-c2ccc(S(=O)(=O)N3CCCC3)cc2)c1N: class 0
CC(C)(CO)CNC(=O)c1ccc2c(c1)/C(=N/Nc1ccc(S(N)(=O)=O)cc1)C(=O)N2: class 1

// inclusive: inhibition at least 10%? input: `c1ccc(-c2nc3n(c2-c2ccc4c(c2)OCO4)CCC3)nc1` class 0

---

Target: SRSF protein kinase 3 (Homo sapiens);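 also: values are mean inhibition of MSSK1 (alias of SRPK3)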
Conditions: at 1 µM
inhibition values, listed per item
Give just the number in %; leave the unit off.

Nc1ncc(-c2cccc(S(N)(=O)=O)c2)c2scc(-c3ccc(F)c(Cl)c3)c12: 0.1

May I ask what inhibition has been recorded for `CNC(=O)c1cc(-c2ccc(F)cc2)cc(-c2ccc(S(=O)(=O)N3CCCC3)cc2)c1N` ? -0.52

Let us now turn to `CN(C)CCOc1ccc(-c2nc(-c3ccncc3)c(-c3ccc4c(c3)CC/C4=N\O)[nH]2)cc1` 1.14

---

inhibition values, listed per item
Target: Sphingosine kinase 2 (Homo sapiens) (UniProt Q9NRA0);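 also: values reported as mean percent inhibition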
Sequence (Q9NRA0 whole entry): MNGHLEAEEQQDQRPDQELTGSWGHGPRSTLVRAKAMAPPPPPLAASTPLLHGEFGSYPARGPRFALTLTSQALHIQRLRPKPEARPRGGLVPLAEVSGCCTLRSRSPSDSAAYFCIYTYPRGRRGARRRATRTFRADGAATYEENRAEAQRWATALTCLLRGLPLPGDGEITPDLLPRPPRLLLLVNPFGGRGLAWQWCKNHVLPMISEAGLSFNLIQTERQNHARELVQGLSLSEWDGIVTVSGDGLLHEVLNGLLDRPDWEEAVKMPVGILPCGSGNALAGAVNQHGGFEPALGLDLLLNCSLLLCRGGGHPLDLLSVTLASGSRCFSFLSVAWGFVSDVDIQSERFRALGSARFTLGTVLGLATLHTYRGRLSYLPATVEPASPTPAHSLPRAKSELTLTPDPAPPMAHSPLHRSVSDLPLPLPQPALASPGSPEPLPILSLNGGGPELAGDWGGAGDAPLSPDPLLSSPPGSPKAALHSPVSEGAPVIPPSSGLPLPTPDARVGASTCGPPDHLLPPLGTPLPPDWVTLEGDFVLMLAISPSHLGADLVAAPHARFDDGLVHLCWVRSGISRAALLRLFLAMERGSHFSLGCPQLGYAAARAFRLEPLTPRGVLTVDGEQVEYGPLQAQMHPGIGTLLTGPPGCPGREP
Conditions: at 0.1 µM
Give just the number in %; leave the unit off.

CC(=O)Nc1cccc(C#Cc2cncnc2Nc2ccc(OCc3cccc(F)c3)c(Cl)c2)c1: -0.41
COc1ccc(-c2cc(-c3c[nH]nc3-c3ccccn3)ccn2)cc1: -1.45
CN1CCC(n2cnc(-c3ccc(F)cc3)c2-c2ccnc(Nc3ccccc3)n2)CC1: -0.42
CCn1c(-c2nonc2N)nc2ccccc21: 13.1
c1ccc(-c2nc3n(c2-c2ccc4c(c2)OCO4)CCC3)nc1: -0.36

May I ask what inhibition has been recorded for `COc1cccc(-n2ncc3c(N/N=C/c4ccc(F)cc4)ncnc32)c1` ? -1.23

Let us now turn to `Fc1ccc(-c2nn3ccccc3c2-c2ccncc2)cc1` 0.23

Let us now turn to `O=S(=O)(CCNCc1ccc(-c2ccc3ncnc(Nc4ccc(OCc5cccc(F)c5)c(Cl)c4)c3c2)o1)c1ccccc1` -0.55

Let us now turn to `Cc1cccc(Nc2ncc(-c3ccccc3)o2)c1` 0.62

Let us now turn to `Fc1ccc(-c2cc(-c3c[nH]nc3-c3ccccn3)ccn2)cc1` -0.74

Let us now turn to `CNC(=O)c1cncc(/C=C/c2ccccc2Cl)c1` 0.11

---

Test system: Platelet-derived growth factor receptor alpha (Homo sapiens), P16234 [T674I]
Sequence (P16234 whole entry T674I): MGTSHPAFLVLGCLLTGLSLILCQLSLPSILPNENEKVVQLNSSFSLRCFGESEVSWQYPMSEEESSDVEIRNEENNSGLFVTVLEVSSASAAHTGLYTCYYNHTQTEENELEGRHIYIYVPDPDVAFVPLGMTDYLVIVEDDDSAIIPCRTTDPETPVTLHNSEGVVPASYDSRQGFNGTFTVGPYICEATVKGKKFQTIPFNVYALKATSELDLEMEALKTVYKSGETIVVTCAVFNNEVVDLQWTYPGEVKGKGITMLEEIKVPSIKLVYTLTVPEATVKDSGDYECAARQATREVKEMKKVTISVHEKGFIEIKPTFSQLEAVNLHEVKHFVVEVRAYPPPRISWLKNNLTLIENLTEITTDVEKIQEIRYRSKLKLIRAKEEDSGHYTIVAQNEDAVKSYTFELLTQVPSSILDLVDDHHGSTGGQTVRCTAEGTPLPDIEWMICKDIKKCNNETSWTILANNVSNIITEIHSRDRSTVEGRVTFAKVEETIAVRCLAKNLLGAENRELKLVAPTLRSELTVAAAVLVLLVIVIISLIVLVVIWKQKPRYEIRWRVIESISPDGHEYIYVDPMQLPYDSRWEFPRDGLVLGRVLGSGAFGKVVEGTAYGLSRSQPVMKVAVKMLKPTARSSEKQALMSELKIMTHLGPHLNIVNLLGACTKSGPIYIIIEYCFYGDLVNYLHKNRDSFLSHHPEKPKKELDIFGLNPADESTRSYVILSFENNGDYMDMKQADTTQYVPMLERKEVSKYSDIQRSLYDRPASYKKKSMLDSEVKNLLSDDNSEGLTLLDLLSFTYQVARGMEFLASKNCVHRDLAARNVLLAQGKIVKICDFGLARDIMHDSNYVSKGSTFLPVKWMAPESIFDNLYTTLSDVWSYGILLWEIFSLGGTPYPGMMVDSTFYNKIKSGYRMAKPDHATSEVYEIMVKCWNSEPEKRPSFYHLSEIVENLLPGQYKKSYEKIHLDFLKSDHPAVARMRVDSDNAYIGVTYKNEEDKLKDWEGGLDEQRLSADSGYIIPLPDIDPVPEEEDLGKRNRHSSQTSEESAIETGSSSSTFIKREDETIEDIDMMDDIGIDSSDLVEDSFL
Conditions: at 1 µM
property.label: inhibition (%)
Give just the number in %; leave the unit off.

May I ask what inhibition has been recorded for `N#Cc1c(NC(=O)CN2CCOCC2)sc2c1CCCC2` ? 9.82

Let us now turn to `CC(=O)NCc1cccc(C#Cc2cncnc2Nc2ccc(OCc3cccc(F)c3)c(Cl)c2)c1` 3.66

Let us now turn to `NS(=O)(=O)c1ccc(Nc2ncc(-c3ccccc3)o2)cc1` 65.1

Let us now turn to `COc1cccc(-n2ncc3c(N/N=C/c4ccc(F)cc4)ncnc32)c1` 29.6

Let us now turn to `FC(F)(F)c1cccc(-c2nn3ncccc3c2-c2ccnc(Nc3ccc4c(c3)OCCO4)n2)c1` 3.91

Let us now turn to `CCn1cc(-c2ccnc3[nH]ccc23)c(-c2cccc(NC(=O)Nc3ccc(OCc4ccccc4)cc3)c2)n1` 1.13

Let us now turn to `CCOc1ccc2c(-c3ccnc(Nc4cccc(C(F)(F)F)c4)n3)cnn2n1` 9.48

Let us now turn to `COc1cc2ncn(-c3cc(OCc4ccccc4C(F)(F)F)c(C(=O)N(C)C)s3)c2cc1OC` 1.13

Let us now turn to `COc1cc(Nc2nccc(Nc3ccc4c(C)n[nH]c4c3)n2)cc(OC)c1OC` 59

Let us now turn to `c1cc(-c2cnn3nc(N4CCOCC4)ccc23)nc(NC2CC2)n1` 17.5
